The reported numbers originate from paper PMC8705783.

tested on: Candida krusei ATCC 6258; test: microbe, parasite or virus in culture; conditions: Pichia kudriavzevii, ATCC6258, 24 h, pH 7
# maps each entry to its MIC90

COMPOUND | MIC90
CCNCCNc1ccc2nnn3c4ccc(O)cc4c(=O)c1c23 [Compound C-1410] | > 64 µg/mL
Cc1ccc2c(c1)c(=O)c1c(NCCCN(C)C)ccc3nnn2c31 [Compound C-1296] | > 64 µg/mL
NCCNc1ccc2ncn3c4ccc(O)cc4c(=O)c1c23 [Compound 1] | > 64 µg/mL
CCN(CC)CCNc1ccc2ncn3c4ccc(O)cc4c(=O)c1c23 [Compound C-1311] | > 64 µg/mL
C[C@@H]1[C@H](O)[C@@H](C)/C=C/C=C/C=C/C=C/C=C/C=C/C=C/[C@H](O[C@@H]2O[C@H](C)[C@@H](O)[C@H](N)[C@@H]2O)C[C@@H]2O[C@](O)(C[C@@H](O)C[C@@H](O)[C@H](O)CC[C@@H](O)C[C@@H](O)CC(=O)O[C@H]1C)C[C@H](O)[C@H]2C(=O)O [Amphotericin B] | 1 µg/mL
CN(C)CCCNc1ccc2nnn3c4ccc(O)cc4c(=O)c1c23 [Compound C-1305] | > 64 µg/mL
